Reported IC50 values for the following compounds.
# Target of assay: serotonin receptor (5HT3) (Mus musculus, UniProt P23979)
# Construct: Full-length cDNAs for mosquito (Anopheles gambiae) odorant receptor; expressed in transfected cells
# Sequence (P23979 24-489): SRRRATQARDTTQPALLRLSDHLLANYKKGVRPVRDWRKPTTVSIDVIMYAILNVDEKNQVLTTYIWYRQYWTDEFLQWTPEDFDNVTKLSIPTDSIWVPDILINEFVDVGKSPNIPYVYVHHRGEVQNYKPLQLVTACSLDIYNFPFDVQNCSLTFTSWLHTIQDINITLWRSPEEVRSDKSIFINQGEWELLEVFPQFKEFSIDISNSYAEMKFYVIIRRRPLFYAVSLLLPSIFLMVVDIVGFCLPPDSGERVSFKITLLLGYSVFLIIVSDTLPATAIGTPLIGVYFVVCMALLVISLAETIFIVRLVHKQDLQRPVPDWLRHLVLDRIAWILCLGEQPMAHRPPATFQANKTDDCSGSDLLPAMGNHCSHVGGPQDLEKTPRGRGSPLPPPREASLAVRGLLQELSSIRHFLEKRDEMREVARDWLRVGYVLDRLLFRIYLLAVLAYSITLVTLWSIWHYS
# Method: Ca2+-imaging of stable Flip-In T-Rex cell line 5HT3
# Type: cell-based
# Recorded conditions: ligand serotonin 10 μM; read-out: IC50 5HT3

Compound	IC50
CCNc1nc(Cl)nc(NC(C)C)n1 [RU-T5]	> 20 µM
O=C(c1nccn1Cc1c(F)cccc1Cl)N(CC1CCCC1)C1CC1 [RU-I3]	2 to 20 µM
CC(C)Nc1nc(Cl)nc(NC(C)C)n1 [RU-T1]	> 20 µM
C=CCN(Cc1nccn1Cc1cccc(F)c1)C(=O)c1ccccc1F [RU-I1]	20 to 50 µM
CCNc1nc(NCC)nc(SC)n1 [RU-T4]	20 to 50 µM
CCNc1nc(NC(C)C)nc(SC)n1 [RU-T3]	20 to 50 µM
CCN(CC)C(=O)c1cccc(C)c1 [DEET, N,N-diethyl-m-toluamide, reference compound]	> 50 µM
O=C(C1CCCC1)N(Cc1nccn1CCc1c(F)cccc1Cl)C1CC1 [RU-I2]	2 to 20 µM
CSc1nc(NC(C)C)nc(NC(C)C)n1 [RU-T2]	2 to 20 µM
Fc1cccc(Cl)c1Cn1ccnc1CN(CC1CCCC1)C1CC1 [RU-I4]	> 20 µM
CN(Cc1nccn1Cc1c(F)cccc1Cl)C(=O)C1CCCC1 [RU-I5]	2 to 20 µM

====

# Target of assay: OR8/OR7 (Anopheles gambiae, UniProt Q7PUT5+Q7QCC7)
# Sequence (Q7QCC7 whole entry): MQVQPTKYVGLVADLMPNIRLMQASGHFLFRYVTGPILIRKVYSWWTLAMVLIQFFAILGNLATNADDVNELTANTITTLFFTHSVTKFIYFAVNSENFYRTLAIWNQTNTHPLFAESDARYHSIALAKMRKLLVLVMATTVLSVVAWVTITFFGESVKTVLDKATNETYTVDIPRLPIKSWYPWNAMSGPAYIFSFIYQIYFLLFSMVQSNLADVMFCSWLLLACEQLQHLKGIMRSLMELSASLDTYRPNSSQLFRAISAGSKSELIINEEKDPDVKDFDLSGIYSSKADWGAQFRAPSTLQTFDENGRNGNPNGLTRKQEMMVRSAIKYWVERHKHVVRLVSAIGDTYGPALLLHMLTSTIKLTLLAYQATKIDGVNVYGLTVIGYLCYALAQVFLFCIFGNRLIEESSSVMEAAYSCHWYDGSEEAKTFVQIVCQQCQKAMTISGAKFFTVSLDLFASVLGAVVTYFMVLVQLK
# Sequence (Q7PUT5 entry or part of it): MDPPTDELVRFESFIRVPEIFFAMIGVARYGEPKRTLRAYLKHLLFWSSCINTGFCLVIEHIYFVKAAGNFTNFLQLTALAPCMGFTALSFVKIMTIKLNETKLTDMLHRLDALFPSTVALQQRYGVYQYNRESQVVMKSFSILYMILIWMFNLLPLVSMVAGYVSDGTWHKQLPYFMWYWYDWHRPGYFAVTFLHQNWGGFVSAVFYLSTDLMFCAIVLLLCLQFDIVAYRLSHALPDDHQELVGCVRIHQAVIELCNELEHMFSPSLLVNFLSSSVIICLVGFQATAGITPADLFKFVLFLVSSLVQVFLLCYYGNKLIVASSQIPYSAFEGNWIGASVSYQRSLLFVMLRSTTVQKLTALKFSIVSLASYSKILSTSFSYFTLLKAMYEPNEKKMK
# Method: Ca2+-imaging of stable HEK293T cell line OR8/OR7
# Format: cell-based
# Recorded conditions: HEK-293T; compound applied at 4 μM; read-out: Percent Inhibition OR8 OR7
Measured attribute: inhibition at 4 µM

Compound	Test value
CCn1c(C)c(C(=O)CN(CC2CCCO2)C(=O)C2C[C@H]2c2ccccc2)c(C)c1C(=O)OC (some centres unmarked) [RU-0071273]	26 to 50%
Cc1ccccc1C(=O)N[C@@H]1CCCCC1NC(=O)C1CCN(C(=O)C23CC4CC(CC(C4)C2)C3)CC1 (some centres unmarked) [RU-0045351]	< 25%
COc1cccc(-c2nnc(SCCCC(=O)N3CCN(C(=O)CC(C)(C)C)C(C)C3)n2-c2ccc(C)cc2)c1 (centres unmarked) [RU-0071818]	< 25%
O=C(c1cccnc1Cl)N1CCOC(COCc2c(Cl)cccc2Cl)C1 (centres unmarked) [RU-0050372]	< 25%
O=C(c1ccco1)N(Cc1nccn1Cc1c(F)cccc1Cl)C1CC1 [RU-0048046]	< 25%
COc1cc(OC)cc(C2NC(=O)N(C)C3=C2C(=O)N(C2CCCCC2)C3)c1 (centres unmarked) [RU-0047750]	< 25%
CN(C)c1nc(N(C)C)nc(N(C)C)n1 [RU-0000619]	26 to 50%
CCOC(=O)C(c1cccc(OC)c1)C1C=CC(NC(=O)c2cccs2)C1 (centres unmarked) [RU-0074560]	< 25%
COc1ccc(-n2c(Cc3ccccc3)nnc2SCCCC(=O)N2CCN(C(=O)c3ccc(C(F)(F)F)cc3)C(C)C2)cc1 (centres unmarked) [RU-0071828]	< 25%
O=C(Cc1cccc(F)c1)N1CCOC(COCc2c(Cl)cccc2Cl)C1 (centres unmarked) [RU-0050398]	< 25%
COc1ccc(N2CCN(C(=O)C3CC=CCC3C(=O)NCCCCc3ccccc3)CC2)cc1 (centres unmarked) [RU-0026167]	26 to 50%
Cc1c(C(=O)NCc2ccco2)cnn1-c1ccccc1 [RU-0047765]	< 25%
Cc1ccccc1C(=O)N[C@@H]1CCCCC1NC(=O)C1CCCN(S(=O)(=O)c2cc(Cl)ccc2Cl)C1 (some centres unmarked) [RU-0045691]	< 25%
O=C(CCC1CCN(C(=O)c2cccc(-n3cccn3)c2)CC1)Nc1ccccc1 [RU-0032465]	51 to 74%
COc1ccccc1CCC(=O)N1CCC(CCC(=O)Nc2ccccc2)CC1 [RU-0032455]	26 to 50%
CCN(CC)c1onc(-c2ccccc2)c1CN(CC1CCCO1)C(=O)c1ccco1 (centres unmarked) [RU-0036855]	26 to 50%
CCc1c(C(=O)NCc2cccnc2)cnn1-c1ccccc1 [RU-0048504]	< 25%
